# Tested on: MCF7 breast
# Assay Explanation: NCI-60 one-dose screen, 48 h
# Applied Conditions: 10 µM unless noted
The panel holds about 83,000 compounds, 20% with a hit somewhere; the sample as a whole holds those more often. Calls of active or inactive are those of the source. Rule for the calls: active = growth percent below 10; inactive = the rest.
The reply should be one of these categories: active, inactive

Examples from the recorded data:
{"columns": ["Substance Smiles", "Assigned Category"],
 "data": [
  ["O=C1C(Cl)=C(Oc2ccccc2)C(=O)c2ccccc21", "inactive"],
  ["C=C1C(=O)O[C@H]2[C@H]1CC/C(COC(=O)CSCCSCC(=O)OC/C1=C/CC[C@@]3(C)O[C@H]3[C@H]3OC(=O)C(=C)[C@@H]3CC1)=C\\CC[C@@]1(C)O[C@@H]21", "inactive"],
  ["O=C(Nn1c2c(sc1=Nc1ccccc1)C(=O)c1ccccc1C2=O)c1cc2ccc1CCc1ccc(cc1)CC2", "inactive"],
  ["C=C(C)[C@@H]1CC[C@]2(C(=O)N3CCN(C)CC3)CC[C@]3(C)[C@H](CC[C@@H]4[C@@]5(C)CC(=C/c6ccncc6)/C(=N/O)C(C)(C)[C@@H]5CC[C@]43C)[C@@H]12", "inactive"],
  ["O=C1/C(=C/c2ccc(-c3ccc(Br)cc3)o2)SC(=S)N1CCc1ccc(O)cc1", "inactive"]
]}

Hi, sorry to bother you, what did the test record for CCOC(=O)C(=Cc1cccc(Cl)c1)C(=O)OCC ? active

Query CCN(CC)CCCN1C(=O)c2c(c(C)c3c(oc4cc(O)ccc43)c2C)C1=O next active

Query Cc1nc2ncnc(Cl)c2[nH]1 next inactive
